target: glucocorticoid receptor (NR3C1) (Homo sapiens); construct: BEAS-2B cells stably transfected with a glucocorticoid response element (2×GRE) driven luciferase reporter plasmid; endogenous in cells; host or cells: BEAS-2B human bronchial epithelial cells stably carrying a 2×GRE luciferase reporter; test: 2×GRE luciferase reporter activation by NR3C1 ligands in BEAS-2B cells; format: cell-based; details: pEC50 (M), +TNF, BEAS-2B 2×GRE reporter, TNF 10 ng/ml pre-treatment 1 h, 6 h
Sequence (P04150 whole entry): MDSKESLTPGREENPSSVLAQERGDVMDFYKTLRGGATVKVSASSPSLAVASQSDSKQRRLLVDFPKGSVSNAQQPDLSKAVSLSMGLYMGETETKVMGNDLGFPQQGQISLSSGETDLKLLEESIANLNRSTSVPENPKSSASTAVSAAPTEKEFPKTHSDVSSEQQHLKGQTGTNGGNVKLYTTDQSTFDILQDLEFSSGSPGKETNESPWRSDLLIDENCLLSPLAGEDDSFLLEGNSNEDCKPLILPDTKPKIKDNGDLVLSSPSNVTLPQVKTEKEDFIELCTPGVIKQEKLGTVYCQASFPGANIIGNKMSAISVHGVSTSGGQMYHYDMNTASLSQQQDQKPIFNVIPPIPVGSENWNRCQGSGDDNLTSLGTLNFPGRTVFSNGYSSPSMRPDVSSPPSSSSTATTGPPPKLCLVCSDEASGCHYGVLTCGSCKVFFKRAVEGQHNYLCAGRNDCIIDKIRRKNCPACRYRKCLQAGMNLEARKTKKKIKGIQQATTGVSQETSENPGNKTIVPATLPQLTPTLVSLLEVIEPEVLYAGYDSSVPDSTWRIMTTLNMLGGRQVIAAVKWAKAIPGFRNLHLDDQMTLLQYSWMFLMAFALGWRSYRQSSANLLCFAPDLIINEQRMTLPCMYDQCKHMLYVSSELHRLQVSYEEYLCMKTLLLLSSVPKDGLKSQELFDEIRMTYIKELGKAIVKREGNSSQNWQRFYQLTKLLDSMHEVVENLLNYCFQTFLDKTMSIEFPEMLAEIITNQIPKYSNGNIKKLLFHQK
Property: EC50 (M)
# value in M; strip the unit string

Record C[C@]12C=CC(=O)C=C1CC[C@@H]1[C@@H]2[C@@H](O)C[C@@]2(C)[C@H]1C[C@H]1O[C@@H](C3CCCCC3)O[C@]12C(=O)CO [Des-ciclesonide] . Reported EC50: 3.16e-09
